tested system: T1, cyno PAI-1 captured on immobilized human vitronectin (cynomolgus monkey; human, UniProt P04004 20-478, limits assumed)
T1 construct: non-covalent complex formed on the chip; also called cPAI-1/Vn
T1 sequence (chain, as listed by the source limits assumed, chain 1 of 2): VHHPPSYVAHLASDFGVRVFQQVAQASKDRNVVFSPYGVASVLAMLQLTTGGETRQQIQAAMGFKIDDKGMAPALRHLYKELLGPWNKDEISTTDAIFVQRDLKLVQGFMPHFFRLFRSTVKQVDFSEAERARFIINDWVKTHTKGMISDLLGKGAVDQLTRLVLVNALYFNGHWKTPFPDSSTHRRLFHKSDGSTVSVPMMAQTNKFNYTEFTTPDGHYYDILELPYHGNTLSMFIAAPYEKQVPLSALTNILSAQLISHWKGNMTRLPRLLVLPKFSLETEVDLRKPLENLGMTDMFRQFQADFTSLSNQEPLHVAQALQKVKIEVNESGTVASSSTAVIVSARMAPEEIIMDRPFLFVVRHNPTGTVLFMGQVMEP
T1 sequence (P04004 20-478 limits assumed, chain 2 of 2): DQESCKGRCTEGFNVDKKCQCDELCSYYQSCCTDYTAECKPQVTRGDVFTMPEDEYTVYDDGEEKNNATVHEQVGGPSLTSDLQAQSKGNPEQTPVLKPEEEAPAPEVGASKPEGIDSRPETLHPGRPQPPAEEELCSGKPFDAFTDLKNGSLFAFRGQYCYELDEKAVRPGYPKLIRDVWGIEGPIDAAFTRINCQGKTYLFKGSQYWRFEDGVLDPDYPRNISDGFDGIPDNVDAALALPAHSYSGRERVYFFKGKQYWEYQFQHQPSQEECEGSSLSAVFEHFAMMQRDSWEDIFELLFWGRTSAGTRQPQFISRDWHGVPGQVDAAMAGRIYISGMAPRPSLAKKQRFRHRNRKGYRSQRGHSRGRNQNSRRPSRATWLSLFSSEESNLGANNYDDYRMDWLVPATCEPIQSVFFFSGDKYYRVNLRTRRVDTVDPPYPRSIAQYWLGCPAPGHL
procedure details: Biacore, cPAI-1 on vitronectin chip, two state reaction model (kd1)
quantity: koff
For clarity, give the value followed by its unit.

Recorded koff, per entry:
Looking up A44-hv2 (antibody, V domains shown, humanized A44, HEK293; constant regions as for A44-hv1; also called LC1b x HC1b; variant 2) VH: EMQLQESGPGLVKPSETLSLTCSVTGDSMTNGYWNWIRKFPGKGLEYMGYITYSGSTYYNPSLKGRISITRNTSKNQYYLKLSSVTTADTATYYCARWHYGSPYYFDYWGQGTTLTVSS VL: DIKMTQSPSSVSVSPGQTVTITCKASQDINSYLSWLQQKPGQSPKTLIYRANRSVDGVPSRFSGSGSGQDYSLTISSLQAMDEGIYYCLQYDEFPPTFGGGTKLTIK , I see its koff listed as 0.000314 s⁻¹

Looking up A44-hv13 (antibody, V domains shown, humanized A44, HEK293; constant regions as for A44-hv1; also called LC2 x HC5b; variant 13) VH: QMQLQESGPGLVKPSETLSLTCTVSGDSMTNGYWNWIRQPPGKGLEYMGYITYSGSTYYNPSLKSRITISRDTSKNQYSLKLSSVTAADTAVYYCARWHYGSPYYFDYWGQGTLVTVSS VL: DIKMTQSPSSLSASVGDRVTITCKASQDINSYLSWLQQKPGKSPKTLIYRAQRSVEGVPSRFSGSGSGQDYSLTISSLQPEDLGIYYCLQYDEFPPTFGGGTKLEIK , I see its koff listed as 0.000243 s⁻¹

Moving on to another binder below.
The measured koff associated with A44-hv11 (antibody, V domains shown, humanized A44, HEK293; compared with a human IgG1 isotype control; constant regions as for A44-hv1; also called A44V11; A44v11) VH: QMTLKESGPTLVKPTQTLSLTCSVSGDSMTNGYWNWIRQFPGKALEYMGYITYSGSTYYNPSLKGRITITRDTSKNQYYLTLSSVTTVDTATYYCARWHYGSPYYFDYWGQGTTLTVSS VL: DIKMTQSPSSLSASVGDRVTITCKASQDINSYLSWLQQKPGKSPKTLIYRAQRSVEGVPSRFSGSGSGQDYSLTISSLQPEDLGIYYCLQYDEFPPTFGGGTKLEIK reads 0.0006 s⁻¹
